Data credit: patent US8541418B2

# TEST_SYSTEM: PLK3 (Homo sapiens, UniProt Q9H4B4)
# Sequence (Q9H4B4 whole entry): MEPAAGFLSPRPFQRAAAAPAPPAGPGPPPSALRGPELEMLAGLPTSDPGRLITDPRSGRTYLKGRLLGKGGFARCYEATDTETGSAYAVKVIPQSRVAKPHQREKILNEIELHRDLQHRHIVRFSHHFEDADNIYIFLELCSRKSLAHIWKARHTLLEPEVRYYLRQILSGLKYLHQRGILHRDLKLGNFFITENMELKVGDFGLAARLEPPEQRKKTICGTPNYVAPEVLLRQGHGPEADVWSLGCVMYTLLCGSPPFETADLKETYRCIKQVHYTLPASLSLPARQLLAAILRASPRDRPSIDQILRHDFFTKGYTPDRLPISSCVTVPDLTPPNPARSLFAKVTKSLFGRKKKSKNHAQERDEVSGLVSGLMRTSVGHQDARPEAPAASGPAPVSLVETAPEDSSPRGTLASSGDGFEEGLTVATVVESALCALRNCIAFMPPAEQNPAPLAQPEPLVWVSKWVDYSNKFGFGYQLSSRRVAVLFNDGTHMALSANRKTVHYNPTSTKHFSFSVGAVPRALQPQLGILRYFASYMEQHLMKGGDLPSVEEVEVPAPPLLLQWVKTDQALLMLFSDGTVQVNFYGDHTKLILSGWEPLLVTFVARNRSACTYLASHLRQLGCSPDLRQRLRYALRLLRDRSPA
# PROTOCOL_TEXT: PLK TR-FRET peptide assay, PLK3
# Type: biochemical
# CONDITION_LABEL: GST-PLK3, 15 min reaction, read-out: Plk3 IC50
pIC50: −log10 of the molar value.
PARAMETER_MEASURED: pIC50

Below, each entry is followed by its recorded pIC50 result.
(Q) Missing value: pIC50, PLK3 (Homo sapiens, UniProt Q9H4B4), entry [2H]C([2H])([2H])N1C(=O)[C@@H](C([2H])([2H])C([2H])([2H])[2H])N(C([2H])(C([2H])([2H])[2H])C([2H])([2H])[2H])c2nc(-n3ccnc3-c3cc(F)cc(F)c3)ncc21 . Fill in?
(A) 5.00 to 6.00

(Q) Item CC[C@@H]1C(=O)N(C)c2cnc(-c3ccncc3CNC(=O)OC(C)(C)C)nc2N1C(C)C with PLK3 (Homo sapiens, UniProt Q9H4B4) - pIC50?
(A) < 4.30

(Q) Can you look up pIC50 on PLK3 (Homo sapiens, UniProt Q9H4B4) for CC[C@]12CCCCN1c1nc(-n3ccnc3-c3cc(F)c(F)c(F)c3)ncc1N(C)C2=O ?
(A) < 4.30

(Q) Can you look up pIC50 on PLK3 (Homo sapiens, UniProt Q9H4B4) for CC[C@@H]1C(=O)N(C)c2cnc(-n3ccnc3-c3nccs3)nc2N1C1CCCC1 ?
(A) > 6.00

(Q) So what pIC50 did CCC12CCCCCN1c1nc(-n3ncnc3-c3cccc4ncccc34)ncc1N(C)C2=O (racemic) get with PLK3 (Homo sapiens, UniProt Q9H4B4)?
(A) < 4.30

(Q) Notebook: pull reported pIC50 for PLK3 (Homo sapiens, UniProt Q9H4B4), entry CC[C@@H]1C(=O)N(C)c2cnc(-c3ccncc3NS(C)(=O)=O)nc2N1C(C)C
(A) < 4.30

(Q) Recorded pIC50 for CC[C@@H]1C(=O)N(C)c2cnc(-c3ccnc(NC)c3)nc2N1C1CCCC1 with PLK3 (Homo sapiens, UniProt Q9H4B4), please?
(A) 4.30 to 5.00

(Q) Observed pIC50 on PLK3 (Homo sapiens, UniProt Q9H4B4) for CC[C@@H]1C(=O)N(C)c2cnc(-n3ccnc3-c3ccc(F)cc3)nc2N1c1cccc(C#N)c1 , please.
(A) 5.00 to 6.00

Proceeding to the next molecule to report its pIC50.
(Q) Form field - read-out: pIC50; system: PLK3 (Homo sapiens, UniProt Q9H4B4); submitted item: CC[C@@H]1C(=O)N(C)c2cnc(-n3ccnc3-c3cnccn3)nc2N1C1CC1
(A) < 4.30

====

# TEST_SYSTEM: PLK2 (Homo sapiens)
# Sequence (Q9NYY3 whole entry): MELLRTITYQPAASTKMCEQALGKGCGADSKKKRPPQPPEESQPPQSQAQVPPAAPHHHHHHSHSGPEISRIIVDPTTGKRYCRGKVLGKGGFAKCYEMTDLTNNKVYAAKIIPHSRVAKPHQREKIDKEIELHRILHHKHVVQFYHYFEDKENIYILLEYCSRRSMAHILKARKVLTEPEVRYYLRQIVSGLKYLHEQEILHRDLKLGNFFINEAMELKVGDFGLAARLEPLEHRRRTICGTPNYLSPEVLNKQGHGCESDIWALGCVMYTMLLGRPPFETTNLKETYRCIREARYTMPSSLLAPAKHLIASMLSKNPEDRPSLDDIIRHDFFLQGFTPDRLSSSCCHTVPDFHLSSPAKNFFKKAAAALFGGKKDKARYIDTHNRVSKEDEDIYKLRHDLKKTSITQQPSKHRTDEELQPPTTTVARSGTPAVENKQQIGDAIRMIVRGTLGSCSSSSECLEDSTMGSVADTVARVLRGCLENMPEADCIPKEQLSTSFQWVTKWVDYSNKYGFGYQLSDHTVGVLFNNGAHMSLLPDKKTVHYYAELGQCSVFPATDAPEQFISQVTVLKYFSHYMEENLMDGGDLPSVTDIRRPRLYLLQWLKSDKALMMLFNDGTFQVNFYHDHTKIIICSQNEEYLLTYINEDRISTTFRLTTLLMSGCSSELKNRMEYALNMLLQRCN
# PROTOCOL_TEXT: PLK TR-FRET peptide assay, PLK2
# Type: biochemical
# CONDITION_LABEL: PLK TR-FRET peptide assay, GST-PLK2, 60 min reaction; read-out: Plk2 IC50
pIC50: −log10 of the molar value.
PARAMETER_MEASURED: pIC50

(Q) Any idea what pIC50 came out for CC[C@@H]1C(=O)N(C)c2cnc(-c3cncs3)nc2N1C1CCCC1 on PLK2 (Homo sapiens)?
(A) > 6.00

(Q) Could you share what pIC50 was measured for CC[C@@]12CCCN1c1nc(-n3ccnc3-c3ccc(Cl)s3)ncc1N(C)C2=O , tested on PLK2 (Homo sapiens)?
(A) > 6.00

(Q) Reported pIC50 for PLK2 (Homo sapiens), given CC[C@@H]1C(=O)N(C)c2cnc(-c3cn[nH]c3-c3nccs3)nc2N1C(C)C1CC1 (some centres unmarked) ?
(A) > 6.00

(Q) Report pIC50 for CC[C@@H]1C(=O)N(C)c2cnc(-c3cccc(C(N)=O)c3)nc2N1C1CCCC1 tested on PLK2 (Homo sapiens).
(A) > 6.00

(Q) Lab note: need pIC50 with PLK2 (Homo sapiens) for entry CC[C@@H]1C(=O)N(C)c2cnc(-c3cccc(OCc4ccccc4)c3)nc2N1C1CCCC1 , please look it up.
(A) 4.30 to 5.00

(Q) I'm curious: which pIC50 was measured for CC[C@@H]1C(=O)N(C)c2cnc(-n3ccnc3-c3ccc(F)c(F)c3)nc2N1C1CCOC1 (some centres unmarked) tested on PLK2 (Homo sapiens)?
(A) > 6.00

***
(Q) Lab request: please report pIC50 under test system PLK2 (Homo sapiens) for CC[C@@]12CCCN1c1nc(-n3ncnc3C#Cc3ccccc3)ncc1N(C)C2=O
(A) 4.30 to 5.00

(Q) Query the reported pIC50 for PLK2 (Homo sapiens); item: CC[C@@H]1C(=O)N(C)c2cnc(-n3cc(C(=O)NC)cn3)nc2N1C1CCCC1
(A) 5.00 to 6.00

(Q) Entry CC[C@@]12CCCCN1c1nc(-n3ccnc3-c3cc(F)c(F)c(F)c3)ncc1N(C)C2=O , system PLK2 (Homo sapiens): what pIC50 was measured?
(A) > 6.00

(Q) Form: Entry = CC[C@@H]1C(=O)N(C)c2cnc(-c3ccncc3CNC(=O)OC)nc2N1C1CCCC1 | System = PLK2 (Homo sapiens) | pIC50 = ____
(A) 5.00 to 6.00

(Q) Hi! What's the reported pIC50 for CC[C@@H]1C(=O)N(C)c2cnc(-c3ccncc3-c3ccccc3)nc2N1C1CC1 on PLK2 (Homo sapiens)?
(A) > 6.00

(Q) Query pIC50 on PLK2 (Homo sapiens) for CC[C@@H]1CC[C@@]2(CC)C(=O)N(C)c3cnc(-n4ccnc4)nc3N12
(A) 5.00 to 6.00

(Q) // lookup pIC50 | system=PLK2 (Homo sapiens) | key= [2H]C([2H])([2H])N1C(=O)[C@@H](C([2H])([2H])C([2H])([2H])[2H])N(C([2H])(C([2H])([2H])[2H])C([2H])([2H])[2H])c2nc(-n3ccnc3-c3cccc(F)c3)ncc21
(A) > 6.00

(Q) Identify the measured pIC50 of CC[C@@H]1C(=O)N(C)c2cnc(-c3ccncc3NC(=O)c3ccccc3)nc2N1C(C)C for PLK2 (Homo sapiens).
(A) > 6.00
